Sourced from the RNAGym collection of RNA variant scans (doi:10.7554/elife.80360)

# self-cleavage listing for each entry below
B1: Hairpin Ribozyme (parent)
chain: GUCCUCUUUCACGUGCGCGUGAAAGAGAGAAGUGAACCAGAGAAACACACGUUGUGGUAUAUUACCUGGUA

variants of: B1; assay: self-cleavage, relative activity (ratio to wild type); higher = more cleavage; co-transcriptional
measured.metric: self-cleavage

1. G21A C37A    0.269
2. C4G U60A    0.105
3. C3G A24U    0.248
4. G13U C37G    0.384
5. C12A G34A    1.21
6. G29U A49G    0.173
7. G27U A31G    0.164
8. A36U G57A    0.108
9. C16G A71G    1.05
10. U58G A71C    1.07
11. U2G A41C    0.566
12. G19U U52C    0.818
13. A11C G42U    0.214
14. U14G U67C    0.145
15. A23C A41U    0.911
16. C12G G68A    0.233
17. U2G U60G    0.278
18. U55A A71U    0.18
19. A24G G54A    0.387
20. A23C A43G    0.0715
21. G42C C48G    0.113
22. A31U A59C    0.0285
23. U9C A22U    0.799
24. C18A U52G    0.86
25. C46G U52G    0.232
26. U33A G34C    0.777
27. C16G A64U    0.172
28. A49G A64C    0.248
29. C12G C46A    0.191
30. A28G C66G    0.0858
31. G21U A49G    0.408
32. G19A U62C    0.278
33. U33A U52C    0.122
34. G51U G68U    0.318
35. U7G U9A    0.68
36. C4G G21A    0.0893
37. G1U A71U    0.167
38. U8G U60G    0.51
39. G68A G69C    0.19
40. G21C G42U    0.379
41. A45G C46A    0.17
42. U14A A43U    0.0759
43. C38U C65G    0.164
44. A24G U58A    0.628
45. C6U G27A    0.309
46. G29C A47C    0.15
47. C12G C16A    0.84
48. U14A A24U    0.644
49. G19U U53A    0.971
50. C3U A36U    0.33
51. C18G C66G    0.19
52. U8A G21A    0.618
53. G34C A59C    0.145
54. C4G C65U    0.224
55. G1U A47C    0.107
56. G25A G54C    0.219
57. G15U G51A    0.948
58. A36G A49G    0.339
59. C37U U52C    0.651
60. C38U A47C    0.276
61. G32C G57U    0.072
62. C6A G32A    0.122
63. G29C A31U    0.0962
64. G54A A59C    0.307
65. A35C G57A    0.0715
66. C3A U52C    0.619
67. U7A C46G    0.108
68. U62G C65U    0.0799
69. C18U G34C    1.44
70. A28G A31G    0.416
71. U5C G54U    0.492
72. C6A C65U    0.265
73. A23C G51C    0.804
74. U9A G68U    0.159
75. U9A U52C    0.6
76. U2G A45C    0.0592
77. C16G A36U    0.553
78. G29A G56A    0.157
79. G19U U70C    0.722
80. U9G G32C    0.0561
81. U2C G34C    0.208
82. U5A U33C    0.0952
83. A11G C18G    0.816
84. A11U A41C    1.01
85. G17C A59G    0.171
86. G27U U33G    0.145
87. A49U G54C    0.28
88. A11U G27A    0.406
89. C50U U58C    0.232
90. A31U A41C    0.154
91. U14C A30C    0.263
